- Test details: RP, Waters ACQUITY UPLC BEH C18, 100 × 1 mm, 1.7 µm, 50 °C, 0.3 mL/min, estimated dead time 0.17 min; A: water + 0.1% formic acid + 20 mM ammonium formate; B: methanol + 0.1% formic acid + 20 mM ammonium formate; gradient (min/%B) 0/0 15/100 21/100 22/0 30/0
- Setup conditions: stereoisomer not certain
LC retention time values by entry

Compound	Readout units	LC retention time
CC(Cl)COP(=O)(OCC(C)Cl)OCC(C)Cl (stereo not given) [Tris(2-chloropropyl) phosphate]	min	14.4
CNC(=O)Oc1ccccc1C1OCCO1	min	15.1
Cc1cc(C)c2ccccc2n1	min	7.37
CCCCCCOC(=O)c1ccccc1C(=O)OCC(CC)CCCC (stereo not given) [2-Ethylhexyl(hexyl)phthalate]	min	18.9
CC(=O)N1CCN(c2ccc(OCC3COC(Cn4ccnc4)(c4ccc(Cl)cc4Cl)O3)cc2)CC1 (stereo not given)	min	13.3

---

- Test details: RP, Waters ACQUITY UPLC BEH C18, 100 × 1 mm, 1.7 µm, 50 °C, 0.3 mL/min, estimated dead time 0.17 min; A: water + 0.1% formic acid + 20 mM ammonium formate; B: methanol + 0.1% formic acid + 20 mM ammonium formate; gradient (min/%B) 0/0 15/100 21/100 22/0 30/0
- Setup conditions: stereoisomer not certain
Each item that follows carries a reported LC retention time.

Molecule	LC retention time / min
C1=Cc2ccccc2Nc2ccccc21 [Iminostilbene]	14.5
O=C1Nc2ccc(Cl)cc2C(C#CC2CC2)(C(F)(F)F)O1 (stereo not given) [Efavirenz]	15.5
O=C(C1CCCCC1)N1CC(=O)N2CCc3ccccc3C2C1 (stereo not given) [Praziquantel]	14
CCC(C)C1OC2(C=CC1C)CC1CC(CC=C(C)C(OC3CC(OC)C(OC4CC(OC)C(NC(C)=O)C(C)O4)C(C)O3)C(C)C=CC=C3COC4C(O)C(C)=CC(C(=O)O1)C34O)O2 (stereo not given) [Eprinomectin B1a]	17.9
CCn1cc(C(=O)O)c(=O)c2cc(F)c(N3CCNCC3)cc21 [norfloxacin]	8.16

---

- Test details: RP, Waters ACQUITY UPLC BEH C18, 100 × 1 mm, 1.7 µm, 50 °C, 0.3 mL/min, estimated dead time 0.17 min; A: water + 10 mM ammonium bicarbonate; B: 10% water + 90% methanol + 10 mM ammonium bicarbonate; gradient (min/%B) 0/0 15/100 21/100 22/0 30/0
- Setup conditions: stereoisomer not certain
The entries below come with measured LC retention time values attached.

Molecule	LC retention time [min]
OCC(O)CN1CCN(c2ccccc2)CC1 (stereo not drawn) [Dropropizine]	10.7
CC(=O)C1CCC2C3CCC4=CC(=O)CCC4(C)C3CCC12C (stereo not drawn) [Progesterone]	15.9
CC12CCC3C(CCC4C(O)C(=O)C=CC43C)C1CCC2=O (stereo not drawn) [4- Hydroxyandrostenedione]	11.9
CCn1cc(C(=O)O)c(=O)c2cc(F)c(N3CCNCC3)cc21 [norfloxacin]	7.5
CCCC(C)(COC(N)=O)COC(=O)NC(C)C (stereo not drawn) [Carisoprodol]	13.3
Cc1ncc2n1-c1ccc(Cl)cc1C(c1ccccc1F)=NC2 [Midazolam]	14.6
COCCc1ccc(OCC(O)CNC(C)C)cc1 (stereo not drawn) [Metoprolol]	12.4
CCNc1nc(Cl)nc(NC(C)(C)C)n1 [Terbuthylazine]	14.4
CCC1COC(Cn2cncn2)(c2ccc(Cl)cc2Cl)O1 (stereo not drawn) [Etaconazole]	15.4
CC(C)(C)c1cc([N+](=O)[O-])cc([N+](=O)[O-])c1O [Dinoterb]	12.6
COc1ccc2c(c1OC)C(=O)OC2C1c2c(cc3c(c2OC)OCO3)CCN1C (stereo not drawn) [Noscapin]	14.8
CCC(C)c1cc([N+](=O)[O-])cc([N+](=O)[O-])c1O (stereo not drawn) [Dinoseb]	12.4
c1ccc(OCCOc2ccccc2)cc1 [Ethylene glycol diphenylether]	13.5
CN(C1CCCCC1)C1CCCCC1 [N-Methyl-dicyclohexylamine]	13.1
C=C1CC(=CC)C(=O)OC2CCN3CC=C(COC(=O)C1(C)O)C23 (stereo not drawn) [Seneciphylline]	11.8
CCC1OC(=O)C(C)C(OC2CC(C)(OC)C(O)C(C)O2)C(C)C(OC2OC(C)CC(N(C)C)C2O)C(C)(O)CC(C)CN(C)C(C)C(O)C1(C)O (stereo not drawn) [Azithromycin]	17.4
CN(C)C(=O)C(CCN1CCC(O)(c2ccc(Cl)cc2)CC1)(c1ccccc1)c1ccccc1 [Loperamide]	16.3
CC1CC2(OC2C)C(=O)OC2CC[N+]3([O-])CC=C(COC(=O)C1(C)O)C23 (stereo not drawn) [Jacobine N-oxide]	7.35

Source: the RepoRT retention time repository (doi:10.1021/acs.analchem.1c00972)
